system: Lysine-specific demethylase 4A (Homo sapiens) (UniProt O75164)
Sequence (O75164 whole entry, looked up, the tested form may be a part): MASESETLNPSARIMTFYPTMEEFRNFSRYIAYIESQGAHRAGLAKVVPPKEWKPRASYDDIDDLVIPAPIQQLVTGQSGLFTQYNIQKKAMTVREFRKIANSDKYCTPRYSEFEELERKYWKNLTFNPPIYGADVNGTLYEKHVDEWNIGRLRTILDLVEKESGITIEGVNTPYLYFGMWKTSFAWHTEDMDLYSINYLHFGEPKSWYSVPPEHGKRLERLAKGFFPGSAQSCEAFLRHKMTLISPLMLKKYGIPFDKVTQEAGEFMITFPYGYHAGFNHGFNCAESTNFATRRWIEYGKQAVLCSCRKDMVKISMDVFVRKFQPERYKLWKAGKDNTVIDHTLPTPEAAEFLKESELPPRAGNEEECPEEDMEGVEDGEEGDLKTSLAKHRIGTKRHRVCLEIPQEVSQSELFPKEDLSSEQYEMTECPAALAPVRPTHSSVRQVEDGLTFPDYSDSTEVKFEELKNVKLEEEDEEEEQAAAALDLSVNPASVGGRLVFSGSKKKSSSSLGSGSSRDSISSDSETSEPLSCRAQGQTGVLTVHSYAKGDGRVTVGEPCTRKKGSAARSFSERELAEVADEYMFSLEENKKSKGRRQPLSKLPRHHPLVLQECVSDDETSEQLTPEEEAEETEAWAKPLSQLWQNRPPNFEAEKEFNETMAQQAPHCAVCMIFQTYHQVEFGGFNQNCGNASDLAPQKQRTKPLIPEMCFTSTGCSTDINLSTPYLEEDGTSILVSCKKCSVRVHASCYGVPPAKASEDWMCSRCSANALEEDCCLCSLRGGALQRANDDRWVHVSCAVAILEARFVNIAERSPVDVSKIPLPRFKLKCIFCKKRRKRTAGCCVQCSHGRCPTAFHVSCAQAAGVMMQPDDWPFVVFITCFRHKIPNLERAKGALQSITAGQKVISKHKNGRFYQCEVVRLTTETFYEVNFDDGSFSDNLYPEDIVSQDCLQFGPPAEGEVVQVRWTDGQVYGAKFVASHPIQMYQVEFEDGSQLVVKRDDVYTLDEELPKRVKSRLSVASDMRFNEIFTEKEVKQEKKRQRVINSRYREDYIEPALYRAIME
test_description: qHTS Assay for Inhibitors of JMJD2A-Tudor Domain; note: nearly all actives have a fitted effect of over 50% in size
conditions_used: AlphaScreen JMJD2A-Tudor / H3K4me3 peptide binding; series mostly up to 114 µM
Screen size: about 390,000 compounds; about 17,000 (4.4%) were called active. Not shown: some 8% with an inconclusive outcome. Calls come from the whole dose curve; as a rule, active = well fitted inhibition curve with a large enough effect; inconclusive = small, poorly fitted or top-dose-only effect; inactive = no such curve, though single readings can be large or run the other way. Shown is part of a subset that was picked to be rich in actives.
The reply should name one outcome from active, inactive

Check the results log: what was the call for Nc1ccc(C(=O)Nc2ccccc2N)cc1 ? inactive

Just curious, what result did Cc1oc(-c2ccccc2F)nc1CN1CCC(C(=O)NCCc2ccc(Cl)cc2)CC1 get here? inactive

// outcome(item) with item = COc1ccccc1CN1CCC(CNC(=O)c2cnn(-c3cccc(Cl)c3)c2C2CCN(C(=O)OC(C)(C)C)CC2)CC1 inactive

Given CCOC(=O)Cc1ccc(NC(=O)Nc2c[nH]c(=O)[nH]c2=O)cc1 , state the outcome it received in this test. inactive

Please state the recorded outcome for this compound: CCOn1c(=O)c(=O)n(O)c2ccccc21 active

What is the recorded call for this compound in the test? Cc1cc(C)c(S(=O)(=O)N2CCOCC2)cc1C active

What was the test verdict on COc1ccc(C)cc1N(C)C(=O)c1c(C)oc2ncnc(N3CCOCC3)c12 ? inactive

What was the test verdict on CC1=C(C(=O)Nc2ccccc2)C(c2ccc(C)cc2)n2nc(SCc3ccccc3C)nc2N1 (stereo unspecified) ? inactive

Each compound tested received a call. Report the one for COn1c(=O)c(=O)n(OC)c2ccccc21 . inactive

Give the logged outcome of this assay for the following compound: Cc1ccc(Nc2ccccc2N)cc1 active

# lookup: test call for Cc1ccc(Nc2nc(Cl)c(C=O)s2)cc1 inactive

These entries and their values trace back to PubChem BioAssay AID504339.
